Parameter: normalized growth. Scope: all listed entries.
Experiment: chemical genetic growth profiling, strain panel (AID 1159580);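 note: tested at 20 µM; growth read once vehicle control cultures reached saturation at 30 °C; 1 = growth at the plate median or of vehicle wells; lower values mean less growth of the strain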
Conditions: S. cerevisiae deletion strains, growth OD, locus YBR021W, strain FUR4, stronger effect = lower value
Hit rate of the full screen: of about 5,500 compounds, about 2,000 (36%) were called active. Roughly 18% stayed inconclusive and do not appear here. This is one part of the list.

Some solved cases for reference:
{"compound": "COc1ccc(NS(=O)(=O)c2ccc(N)cc2)nn1", "normalized growth": "1.02 (inactive)"}
{"compound": "C[N+]1(C)CCCC(OC(=O)C(O)(c2ccccc2)c2ccccc2)C1 (stereo unspecified)", "normalized growth": "1.01 (inactive)"}

What measured normalized growth goes with CC(=O)CCCCn1c(=O)c2c(ncn2C)n(C)c1=O ?
0.991 (inactive)

Another compound: O=C1c2cccc(O)c2C(=O)c2c(O)cccc21
1.18 [resistant] (active)

Another compound: Cn1c(=O)[nH]c2ncn(C)c2c1=O
1.04 (inactive)

Another compound: COC(=O)C[C@H]1C(C)(C)[C@H](O)[C@@H]2CC3=C4CC(O)O[C@@H](c5ccoc5)[C@]4(C)CCC3[C@@]1(C)C2=O (stereo partly specified)
1.01 (inactive)

Another compound: CC(=O)Oc1c(C)c(C)c2c(c1C)CCC(C)(CCCC(C)CCCC(C)CCCC(C)C)O2 (stereo unspecified)
1.03 (inactive)

Another compound: Cc1cc(O)c2c(c1)C(=O)c1cccc(O)c1C2=O
1.05 (inactive)

Another compound: NS(=O)(=O)c1cc2c(cc1Cl)NCNS2(=O)=O
0.994 (inactive)

Another compound: C=C(C)C1Cc2c(ccc(C(=O)O)c2O)O1 (stereo unspecified)
0.931 (inactive)

Another compound: COC1=CC23CCCN2CCc2cc4c(cc2C3C1O)OCO4 (stereo unspecified)
1.01 (inactive)

* * *

Parameter: normalized growth. Scope: all listed entries.
Assay: chemical genetic growth profiling, strain panel (AID 1159580)
Settings: S. cerevisiae deletion strains, growth OD, locus YHR094C, strain hxt1, stronger effect = lower value
Screen size: about 5,500 compounds; about 2,000 (36%) were called active. Inconclusive results (about 18%) are left out. Some of the results follow.
Keep it simple and answer with nothing but the number.

{"compound": "COP(=O)(NC(C)=O)SC (configuration not stated)", "normalized growth": 0.991}
{"compound": "CC(C)OC(=O)Nc1cccc(Cl)c1", "normalized growth": 0.988}
{"compound": "O=C1C=C(O)c2ccccc2C1=O", "normalized growth": 1}

What measured normalized growth goes with O=C1c2ccccc2C(=O)c2ccccc21 ?
0.98

Another compound: CC(NC(C)(C)C)C(=O)c1cccc(Cl)c1 (configuration not stated)
1.02

Another compound: O=c1c(O)c(-c2ccccc2)oc2ccc3occc3c12
0.904

Another compound: O=c1c(O)c(-c2ccccc2)oc2ccccc12
0.975

* * *

Assay: chemical genetic growth profiling, strain panel (AID 1159580)
Details: S. cerevisiae deletion strains, growth OD, locus YCL029C, strain bik1, stronger effect = lower value
Screen size: about 5,500 compounds; about 2,000 (36%) were called active. Inconclusive results (about 18%) are left out. The list shows a part of the results.
measure.name: normalized growth
Keep it simple and answer with nothing but the number.

{"molecule": "C[N+]1(C)CCCC(OC(=O)C(O)(c2ccccc2)c2ccccc2)C1 (configuration not stated)", "normalized growth": 0.988}
{"molecule": "Cc1cc(O)c2c(c1)C(=O)c1cccc(O)c1C2=O", "normalized growth": 0.992}
{"molecule": "COC(=O)C(O)[C@H]1C(C)(C)[C@@H](OC(C)=O)[C@@H]2CC3=C4CC(=O)O[C@@H](c5ccoc5)[C@]4(C)CCC3[C@@]1(C)C2=O (some centres not stated)", "normalized growth": 1.02}
{"molecule": "COc1cc([C@@H]2c3cc4c(cc3[C@H](O)[C@H]3COC(=O)[C@H]23)OCO4)cc(OC)c1OC", "normalized growth": 1.03}
{"molecule": "CON", "normalized growth": 0.976}
{"molecule": "COc1cc2c(cc1OC)C(C)NCC2 (configuration not stated)", "normalized growth": 0.979}
{"molecule": "Cc1c(NC(C)C)c(=O)n(-c2ccccc2)n1C", "normalized growth": 0.983}
{"molecule": "CC(C)c1cc2c(c(O)c1O)[C@@]1(C(=O)O)CCCC(C)(C)C1CC2 (some centres not stated)", "normalized growth": 1.01}
{"molecule": "NC(Cc1ccc(Cl)cc1)C(=O)O (configuration not stated)", "normalized growth": 0.994}
{"molecule": "COc1cc(O)c2c(c1)C(=O)c1cc(C)cc(O)c1C2=O", "normalized growth": 1}

Consider the additional molecule presented here.
What measured normalized growth goes with CCCc1ncc(C[n+]2ccccc2C)c(N)n1 ?
1

* * *

Experiment: chemical genetic growth profiling, strain panel (AID 1159580);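 note: tested at 20 µM; growth read once vehicle control cultures reached saturation at 30 °C; 1 = growth at the plate median or of vehicle wells; lower values mean less growth of the strain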
Conditions: S. cerevisiae deletion strains, growth OD, locus YLR058C, strain SHM2 (second series), stronger effect = lower value
The whole screen tested about 5,500 compounds, of which about 2,000 (36%) were called active. Another 18% or so got no clear call; they are omitted. Some of the results follow.
Parameter: normalized growth. Scope: all listed entries.
Keep it simple and answer with nothing but the number.

{"compound": "O=C(Cc1ccccc1)NC1CCN(S(=O)(=O)c2ccc(Cl)cc2)CC1", "normalized growth": 0.993}
{"compound": "CC(=O)Nc1ccc(S(=O)(=O)NCCCN2CCN(Cc3ccccc3)CC2)cc1Cl", "normalized growth": 1.01}
{"compound": "O=S(=O)(c1ccc(Cl)cc1)N1CCN(Cc2ccccc2)CC1", "normalized growth": 1}
{"compound": "O=C(O)C1c2ccccc2C(=O)N(Cc2ccc3c(c2)OCO3)C1c1cccnc1 (stereo unspecified)", "normalized growth": 0.997}
{"compound": "Clc1cc(Cl)cc(Br)c1", "normalized growth": 1.02}

Consider the additional compound presented here.
What measured normalized growth goes with Nc1c(Cl)cc(C(=O)Nc2cc(Cl)cc(Cl)c2)cc1Cl ?
0.99

* * *

Parameter: normalized growth. Scope: all listed entries.
Experiment: chemical genetic growth profiling, strain panel (AID 1159580);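 note: tested at 20 µM; growth read once vehicle control cultures reached saturation at 30 °C; 1 = growth at the plate median or of vehicle wells; lower values mean less growth of the strain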
Details: S. cerevisiae deletion strains, growth OD, locus YGL248W, strain PDE1, stronger effect = lower value
Among all 5,500 compounds or so, about 2,000 (36%) were called active. Another 18% or so got no clear call; they are omitted. This is one part of the list.
Keep it simple and answer with nothing but the number.

Some solved cases for reference:
{"molecule": "C/C(=C\\CO)CC[C@H](C)CCC[C@H](C)CCCC(C)C", "normalized growth": 1.06}
{"molecule": "COc1ccc([C@@H](C)C(=O)c2ccc(O)cc2O)cc1", "normalized growth": 0.939}
{"molecule": "C=C(C)C1Cc2c(ccc(C(=O)O)c2O)O1 (centres undefined)", "normalized growth": 1}

Consider the additional molecule presented here.
What measured normalized growth goes with CC(C)=CCC/C(C)=C/CO ?
1.03

* * *

Assay: chemical genetic growth profiling, strain panel (AID 1159580);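 note: tested at 20 µM; growth read once vehicle control cultures reached saturation at 30 °C; 1 = growth at the plate median or of vehicle wells; lower values mean less growth of the strain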
Settings: S. cerevisiae deletion strains, growth OD, locus YKL068W
The campaign covered roughly 5,500 compounds. About 2,000 (36%) were called active. About 18% were inconclusive and are not listed. Cut-off read from the data, not from the text of the source: active = normalized growth mostly below about 0.91 (no sharp cut-off); inconclusive = no clear call, values can overlap the other calls; inactive = mostly above about 0.92. This is one part of the list.
I would appreciate it if you answered using one of these outcomes: active, inactive

Study these solved cases before continuing.
{"compound": "Cn1c(=O)c2c(ncn2CCO)n(C)c1=O", "label.class": "inactive"}
{"compound": "CC(C)OC(=O)Nc1cccc(Cl)c1", "label.class": "inactive"}
{"compound": "O=c1c(O)cccc2cc(O)c(O)c(O)c12", "label.class": "active"}
{"compound": "O=C(O)CCC(=O)OC[C@@H](NC(=O)C(Cl)Cl)[C@H](O)c1ccc([N+](=O)[O-])cc1", "label.class": "inactive"}
{"compound": "Cn1c(=O)c2c(ncn2CCCl)n(C)c1=O", "label.class": "inactive"}

What did this assay record as the result for O=c1c(O)c(-c2ccccc2)oc2ccc3occc3c12 ?
inactive

Another compound: O=c1c(O)c(-c2ccccc2)oc2cc(O)ccc12
inactive

Another compound: COC1=CC23CCCN2CCc2cc4c(cc2C3C1O)OCO4 (centres undefined)
inactive

Another compound: COc1cc2cccc(OC)c(=O)c2c(OC)c1OC
inactive

Another compound: COC(=O)C[C@H]1C(C)(C)[C@@H](OC(C)=O)[C@@H]2CC3=C4CC(=O)O[C@@H](c5ccoc5)[C@]4(C)CCC3[C@@]1(C)C2=O (some centres undefined)
inactive

Another compound: Cn1c(=O)[nH]c2nc[nH]c2c1=O
inactive

Another compound: CCCCCC/C=C\CCCCCCCc1cccc(O)c1C(=O)O
inactive

Another compound: COc1cc2c(cc1OC)C(C)NCC2 (centres undefined)
inactive

Another compound: C=C(C)C1Cc2c(ccc3c(=O)c4c(oc23)COc2cc(OC)c(OC)cc2-4)O1 (centres undefined)
inactive

Another compound: COC(=O)C[C@H]1C(C)(C)[C@H](O)[C@@H]2CC3=C4CC(O)O[C@@H](c5ccoc5)[C@]4(C)CCC3[C@@]1(C)C2=O (some centres undefined)
inactive

This collection of values is drawn from PubChem BioAssay AID1159580.
